experiment: blockers of mitochondrial swelling via MPTP – biochemical, absorbance, uHTS hits, dose response (AID 651561); details: isolated mitochondria swelling
The list shows a part of the results. Activity calls are given as the source filed them. Cut-off read from the data, not from the text of the source: active = IC50 below about 20 µM; inactive = the rest.
Field 'call' accepts active, inactive

Past entries and their recorded results:
compound: CCCC[C@@H]1CN=C(N)N1CCc1cc(C(F)(F)F)cc(C(F)(F)F)c1
group: active
//
compound: FC(F)(F)COc1nc(N2CCCCC2)nc(N2CCNCC2)n1
group: active
//
compound: CCCCCCCCCCCCN1C(=O)CSC1c1cccnc1 (stereo not given)
group: active

Each compound tested received a call. Report the one for CN1CCC[C@@H]1CCO[C@](C)(c1ccccc1)c1ccc(Cl)cc1 .
active

Recorded test outcome, item O=C(Nc1cccc(C(F)(F)F)c1)c1ccc(N2CCNCC2)c([N+](=O)[O-])c1
active

Per the records of this test, what outcome belongs to COCCn1c(CN2CCC(Cc3ccccc3)CC2)nc2c1c(=O)n(C)c(=O)n2C ?
active

Tell me the recorded outcome of this test for Clc1ccc(-c2cc(C3CCNCC3)[nH]n2)c(Cl)c1 .
active

Please state the recorded outcome for this compound: Cc1cc(C)c(NC(=O)C[N+](C)(C)CC(O)COc2cccc3ccccc23)c(C)c1 (stereo not given)
active

What call does the record list for CCCc1[nH]nc2c1C(c1c(C)nn(-c3ccccc3)c1Cl)C(C#N)=C(N)O2 (stereo not given) ?
inactive

###

assay: blockers of mitochondrial swelling via MPTP – biochemical, absorbance, uHTS hits, dose response (AID 651561); settings: isolated mitochondria swelling
The other results are listed elsewhere or left out. Activity calls are given as the source filed them. Cut-off read from the data, not from the text of the source: active = IC50 below about 20 µM; inactive = the rest.
Return exactly one item of active, inactive

Solved entries (count: 5):
compound: COc1ccc2sc(N(CCCN(C)C)C(=O)c3ccc(S(=O)(=O)N(C)C4CCCCC4)cc3)nc2c1
group: active

compound: CCCCOc1ccc(CSC(=N)N)cc1[N+](=O)[O-]
group: active

compound: CCCCc1nc(NCCN)c(C#N)c2c1CSC(C)(C)C2
group: active

compound: N=c1n(Cc2ccc(Cl)cc2)c2ccccc2n1CC(O)c1ccco1 (stereo unspecified)
group: active

compound: CCNCCC(=O)N1c2ccccc2Sc2ccc(NC(=O)OCC)cc21
group: inactive

Name the outcome recorded for Fc1ccc(N2N=C(c3cccs3)CC2c2ccco2)c(F)c1 (stereo unspecified) in the assay.
inactive

I'd appreciate the recorded outcome for CCCCOC(=O)CNc1nnc(SCC(=O)OCC)[nH]c1=O from this test.
inactive

Check the results log: what was the call for C[C@@H](CN1CCC[C@H]1CN1C(N)=NC[C@@H]1Cc1ccccc1)N1C[C@@H](Cc2ccccc2)N(CCCC2CCCC2)C1=N ?
active

Which outcome did this test record for the compound Cc1ccc2c(c1)C1CN(C)CCC1N2S(=O)(=O)c1ccc(Oc2ccc([N+](=O)[O-])cc2)cc1 (stereo unspecified) ?
active

Could you kindly confirm the outcome this assay logged for Brc1ccc(CSc2ccc(-c3ccco3)nn2)cc1 ?
inactive

# outcome recorded in this test, key = CCOC(=O)c1c(NC(=O)CSc2cn(CC)c3ccccc23)sc2c1CCC2
inactive
